# testMethodNotes: Plasma levels of QC and VPA in blood of off-label treated AML patients, measured by LC/MS
# Format: in vivo, human
# particulars: human, oral, Plasma VPA, Patient 2, day 1, QC 100 mg/day, VPA 300 + 600 mg/day, 3 h after intake
valueKind: concentration at 3 h (µM)
Numeric only. Scale: µM

Input line: Consider the compound shown here: CCCC(CCC)C(=O)O [VPA, 2-propylvaleric acid] What is its recorded concentration at 3 h?
Output line: 156

###

# testMethodNotes: Plasma levels of QC and VPA in blood of off-label treated AML patients, measured by LC/MS
# Format: in vivo, human
# particulars: human, oral, Patient 3, day 1, QC 100 mg/day, VPA 300 + 300 mg/day, 3 h after intake, read-out: Plasma QC
valueKind: concentration at 3 h (nM)
Reply numerically in nM, unit not repeated.

Input line: Which measured concentration at 3 h value corresponds to CCN(CC)CCCC(C)Nc1c2ccc(Cl)cc2nc2ccc(OC)cc12 (racemic) ?
Output line: 8

###

# testMethodNotes: Plasma levels of QC and VPA in blood of off-label treated AML patients, measured by LC/MS
# Type: in vivo, human
# particulars: human, oral, Plasma VPA, Patient 3, day 15, QC 300 mg/day, VPA 300 + 600 mg/day
valueKind: concentration at 15 day (µM)
Please give a number only; it is taken to be in µM.

Input line: Need concentration at 15 day of `CCCC(CCC)C(=O)O` , thanks.
Output line: 41.3
